Biological target: UniProt:P08183
Sequence (P08183 whole entry): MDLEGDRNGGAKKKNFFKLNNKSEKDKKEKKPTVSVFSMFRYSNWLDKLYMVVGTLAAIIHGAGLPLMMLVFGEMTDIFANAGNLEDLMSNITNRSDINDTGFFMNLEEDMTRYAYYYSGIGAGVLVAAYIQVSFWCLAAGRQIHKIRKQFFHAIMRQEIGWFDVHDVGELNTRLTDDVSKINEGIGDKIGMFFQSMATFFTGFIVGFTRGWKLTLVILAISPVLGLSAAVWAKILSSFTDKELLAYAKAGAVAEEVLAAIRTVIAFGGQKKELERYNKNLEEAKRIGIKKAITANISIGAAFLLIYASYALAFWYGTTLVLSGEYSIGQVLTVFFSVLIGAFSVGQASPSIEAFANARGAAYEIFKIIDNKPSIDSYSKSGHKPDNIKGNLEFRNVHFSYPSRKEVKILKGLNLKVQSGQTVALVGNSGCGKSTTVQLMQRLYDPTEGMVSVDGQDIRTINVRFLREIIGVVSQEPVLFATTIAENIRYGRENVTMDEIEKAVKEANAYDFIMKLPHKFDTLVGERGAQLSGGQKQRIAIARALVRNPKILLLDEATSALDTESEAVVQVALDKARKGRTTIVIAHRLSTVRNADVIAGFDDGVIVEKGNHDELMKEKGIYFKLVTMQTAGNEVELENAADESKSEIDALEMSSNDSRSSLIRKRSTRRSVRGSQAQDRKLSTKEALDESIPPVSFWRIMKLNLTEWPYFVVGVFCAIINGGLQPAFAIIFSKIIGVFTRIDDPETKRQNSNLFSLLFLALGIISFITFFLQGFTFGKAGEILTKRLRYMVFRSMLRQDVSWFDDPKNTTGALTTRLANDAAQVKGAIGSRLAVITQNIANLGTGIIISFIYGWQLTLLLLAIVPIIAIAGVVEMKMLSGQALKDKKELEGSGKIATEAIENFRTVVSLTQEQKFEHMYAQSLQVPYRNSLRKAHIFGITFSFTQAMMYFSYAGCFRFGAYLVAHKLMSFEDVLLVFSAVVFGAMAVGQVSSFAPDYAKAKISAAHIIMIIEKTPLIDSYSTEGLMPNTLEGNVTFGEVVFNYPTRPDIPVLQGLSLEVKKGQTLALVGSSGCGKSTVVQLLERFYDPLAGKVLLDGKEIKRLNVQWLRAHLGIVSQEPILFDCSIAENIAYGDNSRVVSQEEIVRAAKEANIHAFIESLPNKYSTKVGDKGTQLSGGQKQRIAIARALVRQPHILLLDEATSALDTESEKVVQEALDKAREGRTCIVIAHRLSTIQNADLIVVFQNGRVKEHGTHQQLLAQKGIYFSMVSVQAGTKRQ
Test: Inhibition of P-gp in human K562/DOX cells assessed as drug level causing maximum increase in nuclear pirarubicin concentration incubated for 30 mins by fluorescence based assay relative to control
Format: cell-based
Details: 0.5 h
Parameter measured: Alpha max

{"Structure smiles string": "COc1cc(/C=C/C(=O)OCCCCCCCN(C)C[C@H](C)COC(=O)c2cc(OC)c(OC)c(OC)c2)cc(OC)c1OC", "Alpha max": 0.7}
{"Structure smiles string": "COc1cc(/C=C/C(=O)OC[C@@H](C)CN(C)CCCCCOC(=O)c2cc(OC)c(OC)c(OC)c2)cc(OC)c1OC", "Alpha max": 0.99}
{"Structure smiles string": "COc1cc(/C=C/C(=O)OC[C@H](C)CN(C)CCCOC(=O)c2c3ccccc3cc3ccccc23)cc(OC)c1OC", "Alpha max": 0.99}
{"Structure smiles string": "COc1cc(/C=C/C(=O)OC[C@H](C)CN(C)CCCCCOC(=O)c2cc(OC)c(OC)c(OC)c2)cc(OC)c1OC", "Alpha max": 0.99}
